Origin of values: the RepoRT retention time repository (doi:10.1021/acs.analchem.7b00925)

# experiment: HILIC, Merck SeQuant ZIC-HILIC, 100 × 2.1 mm, 3.5 µm, 25 °C, 0.3 mL/min, estimated dead time 0.73 min; A: water + 0.1% formic acid, pH 3; B: acetonitrile + 0.1% formic acid, pH 3; gradient (min/%B) 0/95 1.5/95 13.5/40 15.5/40 29.7/25 33.5/25 34.5/95 41.5/95
# condition: stereoisomer not certain
measurementKind: LC retention time (min)

Past entries and their recorded results:
compound: CC(=O)NC(CCC[NH+]=C(N)N)C(=O)[O-] (stereo unspecified)
valueReported: 8.35
--
compound: O=C(O)C=C(CC(=O)O)C(=O)O [cis-aconitate]
valueReported: 4.23
--
compound: NCCCC(N)C(=O)O (stereo unspecified)
valueReported: 12.5

A = NCCC(=O)NC(Cc1cnc[nH]1)C(=O)O (stereo unspecified)
B = CNCC(O)c1ccc(O)c(O)c1 (stereo unspecified)
C = OCC(O)C(O)CO (stereo unspecified)
D = O=C(O)c1ccc2ccccc2n1
Req: Please list the entries, largest LC retention time first. // list labels; follow requested order
Resp: A, B, C, D

###

# experiment: HILIC, Merck SeQuant ZIC-HILIC, 100 × 2.1 mm, 3.5 µm, 25 °C, 0.3 mL/min, estimated dead time 0.73 min; A: water + 0.1% formic acid, pH 3; B: acetonitrile + 0.1% formic acid, pH 3; gradient (min/%B) 0/95 1.5/95 13.5/40 15.5/40 29.7/25 33.5/25 34.5/95 41.5/95
# condition: stereoisomer not certain
measurementKind: LC retention time (min)

molecule: NC(Cc1c[nH]c2ccc(O)cc12)C(=O)O (configuration not stated) [5-hydroxytryptophan]
LC retention time (min): 7.58

P = CC(=O)NC(CCCN)C(=O)O (configuration not stated) [N-Acetyl-ornithine]
Q = COC(=O)c1nccnc1N [Methyl 3-aminopyrazine-2-carboxylic acid]
Req: Between P and Q , which one shows the smaller LC retention time number? Select an item and report its label.
Resp: Q
(Q: 1.05 min, P: 8.65 min)

P = O=C(C=Cc1ccc(O)c(O)c1)OC1CC(O)(C(=O)O)CC(O)C1O (configuration not stated) [Chlorogenic acid]
Q = NC(=O)CC(N)C(=O)O (configuration not stated) [Asparagine]
Req: Hi there! Just curious which has the higher LC retention time between P and Q . Select an item and report its label.
Resp: Q

I = NC(=O)CCC(N)C(=O)O (configuration not stated) [Glutamine]
II = O=C(O)C=Cc1cnc[nH]1 [cis-urocanic acid]
III = O=C(O)CNC(=O)c1ccco1 [2-furoylglycine]
IV = Cn1cncc1CC(NC(=O)CCN)C(=O)O [L-Anserine]
Req: Reorder the items by LC retention time, least to greatest. // list labels; follow requested order
Resp: III, II, I, IV
(III: 1.46 min, II: 5 min, I: 8.52 min, IV: 12.6 min)

a = NC(CCSCC(N)C(=O)O)C(=O)O (configuration not stated) [Cystathionine]
b = Cc1ccccc1C(=O)NCC(=O)O [Methylhippurate]
Req: Hi there! Just curious which has the higher LC retention time between a and b . Select an item and report its label.
Resp: a

a = NC1C(O)OC(CO)C(O)C1O (configuration not stated) [Glucosamine]
b = CC(O)C(O)c1cnc2nc(N)[nH]c(=O)c2n1 (configuration not stated) [Biopterin]
Req: Hi there! Just curious which has the higher LC retention time between a and b . Select an item and report its label.
Resp: a
(a: 10.5 min, b: 6.01 min)

1 = Nc1ncnc2c1ncn2C1OC(COP(=O)(O)O)C(O)C1O (configuration not stated) [Adenosine mono-phosphate]
2 = CC(C)CC(NC(=O)C(C)NC(=O)C(N)Cc1ccccc1)C(=O)O (stereo not drawn) [Phe-Ala-Leu]
Req: Hi there! Just curious which has the higher LC retention time between 1 and 2 . Select an item and report its label.
Resp: 1
(1: 8.41 min, 2: 5.8 min)

A = NC(N)=NCC(=O)O [Glycocyamine]
B = CC(CCC(=O)[O-])[N+](C)(C)C (configuration not stated) [4-aminovaleric acid betaine]
Req: Between A and B , which one shows the smaller LC retention time number? Select an item and report its label.
Resp: B

1 = NCCS(=O)O [Hypotaurine]
2 = CC(=O)NC(CCCNC(N)=O)C(=O)O (configuration not stated) [Acetylcitrulline]
Req: Between 1 and 2 , which one shows the smaller LC retention time number? Select an item and report its label.
Resp: 2
